assayMethodText: yeast display, Sf9 membrane polyspecificity reagent, FACS + sequencing; frameworks hold sequencing errors
assayEndpoint: polyreactivity (PSR sort gate)

Answered cases to consult:
Asked: Which measured polyreactivity (PSR sort gate) value corresponds to `QVQLVESGGGLVQAGGSLRLSCAASGSTFVTNAMGWYRQAPGTEREFVAAISWISTSTYYADSVKGRFTISRDNAKNTVYLQMNSLKPEDTAVYYCNATTFAFSPSLKGAYGYWGQGTQVTVSS` ?
Given back: low polyreactivity

Asked: Any idea what its polyreactivity (PSR sort gate) is? The sequence is `QVQLVESGGGLVQGGGSLRLSCAASGRTFYWNAMGWYRQAPGKERELVAAIRWRGGNTYYADSVKGRFTISRDIEKNTVYLQMNSLKPEDSAVYYCAAAGGNTEMGYWGQGSQVTVSS`
Given back: high polyreactivity

Asked: Record request: polyreactivity (PSR sort gate) value, item `QVQLVESGGGLVQAGGSLRLSCAASGSILGDNAMAWYRQAPGKERELVAAISYRGGSTYADSVKGRFTISRANAKNTVYLQMNSLKPEDTAVYYCNKTDIDDSQYREYEYWGQGTQVTVSS`
Given back: low polyreactivity

Asked: Find the recorded polyreactivity (PSR sort gate) belonging to `QVQLVESGGGLVQAGGRLRLSCAASGRIFDPYAMGWCRQAPGKESELVASISWSGGRTYYADSVKGRFTISRDNAKNTVYLQMNSLKPEDTAVYYCAAREWYRYKVRFDYWGQGTQVTVSS` and report it.
Given back: high polyreactivity

***
Asked: Which polyreactivity (PSR sort gate) is reported for this sequence? `QVQLVESGGGLVQAGGSLRLSCAASGFTFGRNAIVWYRQAPGKERELVASIDWSGGSTYYADSVKGRFTISRDNAKNTVYLQMNSLKPEDTAVYYCAVGPNSVGNRSYGFDYWGQGTQVTVSS`
Given back: low polyreactivity

All figures here come from the nanobody polyreactivity screen of Harvey et al. (2022).
